- Measurement description: Oral bioavailability in rat at 25 mg/kg, po
- Assay type: ADME, organism-based
- Measurement context: in vivo
Assay endpoint: bioavailability (%)

a. COc1ccc([C@H]2C[C@@H]2NC(=O)CC(C)(C)NCC(=O)N2C[C@@H](F)C[C@H]2C#N)cc1
b. CC(C)(CC(=O)N[C@H]1C[C@@H]1c1cccc(Cl)c1)NCC(=O)N1CC(F)(F)C[C@H]1C#N
Prompt: // compare measured bioavailability, left a , right b , return larger Field: selected label. Fill in the label of the entry you choose.
Completion: b

---

- Measurement description: Cmax in rat at 25 mg/kg, po
- Format: ADME, organism-based
- Parameters: dose 25 mg/kg, route oral
- Measurement context: in vivo
Assay endpoint: Cmax (ng/mL)

CC(C)(CC(=O)N[C@H]1C[C@@H]1c1cccc(Cl)c1)NCC(=O)N1CC(F)(F)C[C@H]1C#N ... 454
COc1ccc([C@H]2C[C@@H]2NC(=O)CC(C)(C)NCC(=O)N2C[C@@H](F)C[C@H]2C#N)cc1 ... 347
